These entries and their values trace back to ChEMBL document CHEMBL4257477.

- PROCEDURE_SUMMARY: Inhibition of porcine CEase using para-nitrophenyl butyrate as substrate preincubated with substrate for 5 mins followed by enzyme addition by spectrophotometric method
- Parameters: species or system Sus scrofa
EXPERIMENTAL_ENDPOINT: pIC50
In simple prose, pIC50 is minus the logarithm base ten of a concentration in moles per litre.

Recorded pIC50, per entry:
{"columns": ["SMILES_STRUCTURE", "pIC50"],
 "data": [
  ["O=c1cc(-c2cc(F)ccc2C(F)(F)F)oc2ccc3ccccc3c12", 7.56],
  ["O=c1cc(-c2cc(F)cc(F)c2)oc2ccc3ccccc3c12", 9.00],
  ["O=c1cc(-c2cccc([N+](=O)[O-])c2)oc2ccc3ccccc3c12", 7.78],
  ["O=c1cc(-c2cccc(Cl)c2)oc2ccc3ccccc3c12", 9.08],
  ["O=c1cc(-c2c(F)cccc2F)oc2ccc3ccccc3c12", 8.92],
  ["O=c1cc(-c2cccc(Br)c2)oc2ccc3ccccc3c12", 8.22],
  ["O=c1cc(-c2ccc([N+](=O)[O-])cc2)oc2ccc3ccccc3c12", 7.74],
  ["O=c1cc(-c2ccc(Br)cc2)oc2ccc3ccccc3c12", 8.09]
]}

q: Find the recorded pIC50 belonging to `O=c1cc(-c2cc(F)ccc2F)oc2ccc3ccccc3c12` and report it.
a: 8.97

q: For the compound `O=c1cc(-c2ccccc2F)oc2ccc3ccccc3c12` , what pIC50 is on record?
a: 8.59

q: So what does the record say about pIC50 for `O=c1cc(-c2ccc(I)cc2)oc2ccc3ccccc3c12` ?
a: 7.88

---

- PROCEDURE_SUMMARY: Inhibition of porcine CEase using para-nitrophenyl butyrate as substrate preincubated with substrate for 5 mins followed by enzyme addition by spectrophotometric method
- Design: species or system Sus scrofa
pIC50: −log10 of the molar value.
Quick rule for you: pIC50 at 8 or higher means Yes, lower means No.

Examples from the recorded data:
{"columns": ["SMILES_STRUCTURE", "ASSIGNED_CATEGORY"],
 "data": [
  ["O=c1cc(-c2ccc(CCl)cc2)oc2ccc3ccccc3c12", "No"],
  ["O=c1cc(-c2ccc(F)cc2F)oc2ccc3ccccc3c12", "Yes"]
]}

q: Textbook exercise: given the entry `O=c1cc(-c2cccc(F)c2)oc2ccc3ccccc3c12` , state whether its pIC50 is greater than or equal to 8.
a: Yes

q: Hi, just wondering whether `O=c1cc(-c2cccc(CCl)c2)oc2ccc3ccccc3c12` shows pIC50 of 8 or higher.
a: No

q: Check if pIC50 >= 8 (inclusive). Item: `O=c1cc(-c2ccc(F)cc2)oc2ccc3ccccc3c12`
a: Yes

---

Entries annotated with measured IC50
- PROCEDURE_SUMMARY: Inhibition of porcine CEase using para-nitrophenyl butyrate as substrate preincubated with substrate for 5 mins followed by enzyme addition by spectrophotometric method
- Design: species or system Sus scrofa
Report the figure in nM without appending any unit label.

{"columns": ["SMILES_STRUCTURE", "IC50, nM"],
 "data": [
  ["O=c1cc(-c2ccc(C(F)(F)F)cc2F)oc2ccc3ccccc3c12", 23.1],
  ["CCOP(=O)(OCC)Oc1cc(O)c2c(=O)cc(-c3ccccc3)oc2c1", 0.72],
  ["O=c1cc(-c2cc([N+](=O)[O-])cc([N+](=O)[O-])c2)oc2ccc3ccccc3c12", 9.8]
]}

q: # input compound: `O=c1cc(-c2c(F)cccc2C(F)(F)F)oc2ccc3ccccc3c12` ; wanted: its IC50
a: 29.2

q: Requested read-out: IC50. Entry: `O=c1cc(-c2ccc(F)c(F)c2)oc2ccc3ccccc3c12`
a: 1.15

---

- PROCEDURE_SUMMARY: Inhibition of porcine CEase using para-nitrophenyl butyrate as substrate preincubated with substrate for 5 mins followed by enzyme addition by spectrophotometric method
- Set-up: species or system Sus scrofa
pIC50: −log10 of the molar value.
Decision: pIC50 >= 8 yields T, all other cases yield F.

As a guide, the following entries are already answered.
{"columns": ["SMILES_STRUCTURE", "ASSIGNED_CATEGORY"],
 "data": [
  ["O=c1cc(-c2cccc(Cl)c2Cl)oc2ccc3ccccc3c12", "T"],
  ["O=c1cc(-c2ccccc2Br)oc2ccc3ccccc3c12", "T"],
  ["O=c1cc(-c2ccccc2C(F)(F)F)oc2ccc3ccccc3c12", "F"],
  ["O=c1cc(-c2ccccc2)oc2ccc3ccccc3c12", "F"]
]}

Okay, next one:
q: # check: pIC50 of `O=c1cc(-c2cc(F)cc(C(F)(F)F)c2)oc2ccc3ccccc3c12` is greater than or equal to 8
a: F
